- Test system: human D2 receptor (short isoform) (Homo sapiens, UniProt P14416)
- Sequence (P14416 1-414 isoform P14416-2): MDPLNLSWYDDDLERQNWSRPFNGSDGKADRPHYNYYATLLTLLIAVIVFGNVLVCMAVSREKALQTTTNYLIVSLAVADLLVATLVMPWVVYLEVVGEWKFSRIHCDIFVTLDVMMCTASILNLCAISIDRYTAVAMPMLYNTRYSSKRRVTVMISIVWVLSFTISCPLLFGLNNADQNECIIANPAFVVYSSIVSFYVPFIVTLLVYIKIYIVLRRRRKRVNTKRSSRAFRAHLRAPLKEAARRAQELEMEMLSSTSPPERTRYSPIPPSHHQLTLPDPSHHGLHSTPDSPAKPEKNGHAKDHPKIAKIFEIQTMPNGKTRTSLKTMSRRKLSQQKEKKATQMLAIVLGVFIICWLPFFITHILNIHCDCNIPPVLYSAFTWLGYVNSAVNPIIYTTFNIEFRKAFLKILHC
- Run description: D2 receptor binding, 3H-spiperone displacement
- Condition label: membranes of GH4 C1 (rat pituitary) cells stably transfected with human D2 short isoform; 0.25 nM 3H-spiperone; Cheng-Prusoff
- Method: D2 and D4 receptor-binding affinities of the compounds of Example 3 were evaluated as described in WO95/17400 (incorporated herein by reference) for their ability to reduce binding of ^3 H-spiperone as compared to the reference compound clozapine. […] Non-specific binding for D4 was assayed by incubating membrane homogenate, ^3 H-spiperone and fresh dopamine. Filtrate was counted using the same procedure as in the total binding assay described above to give the non-specific binding value (NSB). […]
Reported endpoint: pKi
Answers are plain numbers, as −log10 of the molar value.

# input Given Ic1ccc(N2CCN(Cc3c[nH]c4ncccc34)CC2)cc1 , state its recorded pKi.
# output 5.63
